Provenance of the data: the supplement of paper PMC10567573

B1: ZNF207 (parent)
chain: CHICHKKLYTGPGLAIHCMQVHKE

# Variants of: B1
# Protocol details: protein stability index of a GFP-peptide fusion (GPS, HEK-293T) (PSI 1-6); higher = more stable;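 further: lentivirally expressed fusions sorted by FACS into six bins by GFP to DsRed ratio, PSI derived from sequencing read proportions per bin multiplied by bin number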
# Study conditions: c terminus: a fixed tail appended
Catalogue of protein stability index values
Result type: protein stability index

| Alteration | Result value |
| --- | --- |
| V21Y | 3.93 |
| L8G | 3.61 |
| I3G | 2.48 |
| H17N | 2.25 |
| Q20S | 1.93 |
| G13V | 2.54 |
| L8P | 3.1 |
| H5Y | 2.97 |
| C4W | 1.88 |
| Q20A | 3.4 |
| K23D | 3.87 |
| C1M | 2.03 |
| L8E | 3.96 |
| P12K | 3.5 |
| C4A | 1.36 |
| V21S | 3.71 |
| V21G | 3.96 |
| G13N | 3.77 |
| Y9H | 3.62 |
| M19N | 3.9 |
| C4F | 1.93 |
| G11P | 3.94 |
| C4E | 1.07 |
| G13Y | 2.12 |
| H17Q | 2.97 |
| I3S | 2.58 |
| I16S | 3.72 |
| H5R | 2.96 |
| L14V | 3 |
| K6V | 3.41 |
| G13S | 3.83 |
| V21A | 3.84 |
| Y9A | 4.31 |
| E24K | 2.65 |
| I16C | 4.33 |
| T10G | 3.06 |
| K23L | 2.38 |
| L14P | 3.9 |
| I3C | 2.54 |
| V21I | 2.49 |
| H22Y | 1.45 |
| Y9T | 3.27 |
| E24T | 2.96 |
| A15T | 3.69 |
| M19A | 3.57 |
| C4T | 1.5 |
